experimentalProtocol: Solvent swelling of silicone boots
Type: physicochemical
measurementParameters: silicone boots placed in solvent for 2 hours; solvent ratios by volume
measuredMetric: % Weight Increase (%)
Output spec: scalar in %, unitless text.

Dear colleague, I am looking for the recorded % Weight Increase of the following molecule: `C1CCOC1`
105

Looking for the measured % Weight Increase of ClC(Cl)Cl [Chloroform] , can you help?
166

% Weight Increase for CCCCOC(C)=O [Butyl Acetate] ?
73

Which % Weight Increase value belongs to `Cc1ccccc1` ?
85

Name the reported % Weight Increase value associated with the molecule `C1CCCCC1`
85

GET /values?readout=% Weight Increase&item= `CC(C)O`
13

What % Weight Increase value was documented for this molecule, `CC(C)=O` ?
15

Would you kindly share the measured % Weight Increase for CCOC(C)=O [Ethyl acetate] ?
54

Given the molecule `C1CCCC1` , what is its reported % Weight Increase?
62
